# Tested on: HT29
# Measurement conditions: 72 h, relative to DMSO; 10 µM
Structures can show the parent of a compound that is named as a salt.
Measurement name: Relative cell viability (%) (%)
Write the answer as a number in %, unit excluded.

Some entries whose results are on file:
{"columns": ["Compound", "Measurement name", "U", "Observed value"],
 "data": [
  ["CCOC(=O)c1ccc(OC(=O)CCCCCNC(=N)N)cc1 [Gabexate Mesylate]", "Relative cell viability (%)", "%", 124.4],
  ["CC(=O)N1CCN(c2ccc(OC[C@@H]3CO[C@@](Cn4ccnc4)(c4ccc(Cl)cc4Cl)O3)cc2)CC1 (racemic)", "Relative cell viability (%)", "%", 43.15]
]}

Identify Relative cell viability (%) associated with the compound C=C1[C@H](CO)[C@@H](O)C[C@@H]1n1cnc2c(=O)[nH]c(N)nc21 [Entecavir Hydrate]
99.22

Return value of Relative cell viability (%) for input CC1=NN(c2ccccc2)C(=O)C1 , no commentary.
97.66

Given COc1ccc2cccc(CCNC(C)=O)c2c1 , respond with its Relative cell viability (%).
61.84

###

# Test system: HT29
# Measurement conditions: 72 h, relative to DMSO; 10 µM
Relative cell viability (%) listing for selected molecules.
Field format: number, assumed %, no unit text.

{"columns": ["Molecule", "U", "Relative cell viability (%)"],
 "data": [
  ["Cc1c(Cl)cccc1Nc1ccccc1C(=O)O [Tolfenamic Acid]", "%", 166.2]
]}

Could you now look at the following molecule, please?
Give Relative cell viability (%) for COc1cc(/C=C/C(=O)CC(=O)/C=C/c2ccc(O)c(OC)c2)ccc1O [Curcumin] tested on HT29.
46.19

###

# Test system: HT29
# Measurement conditions: 72 h, relative to DMSO; 10 µM
# Description: To investigate the key signaling pathways and biological processes involved in CRC progression, we analyzed the National Center for Biotechnology Information Gene Expression Omnibus (GEO) dataset GSE115313, which included 42 CRC and paired normal tissues (Figure 1A). […] Absorbance at the wavelength of 450 nm was measured using an automated microplate spectrophotometer (BioTek Instruments, Winooski, VT, USA).
Structures can show the parent of a compound that is named as a salt.
This section presents molecules with their documented Relative cell viability (%) values.
The answer is to be given in %; state only the numeric part.

{"columns": ["Molecule", "Measurement name", "Observed value"],
 "data": [
  ["CCN1CCC[C@H]1CNC(=O)c1cc(S(N)(=O)=O)ccc1OC [Levosulpiride]", "Relative cell viability (%)", 114.3],
  ["CCOC(=O)[C@H](CCc1ccccc1)N[C@@H](C)C(=O)N1Cc2cc(OC)c(OC)cc2C[C@H]1C(=O)O [Moexipril HCl]", "Relative cell viability (%)", 110.2],
  ["O=C1CCc2ccc(OCCCCN3CCN(c4cccc(Cl)c4Cl)CC3)cc2N1", "Relative cell viability (%)", 49.03]
]}

Provide only the value of recorded Relative cell viability (%) for N#CC1(c2ccc(NC(=O)c3cccnc3NCc3ccncc3)cc2)CCCC1
110.8

###

# System: HT29
# Measurement conditions: 72 h, relative to DMSO; 10 µM
# Description: To investigate the key signaling pathways and biological processes involved in CRC progression, we analyzed the National Center for Biotechnology Information Gene Expression Omnibus (GEO) dataset GSE115313, which included 42 CRC and paired normal tissues (Figure 1A). […] Absorbance at the wavelength of 450 nm was measured using an automated microplate spectrophotometer (BioTek Instruments, Winooski, VT, USA).
Structures can show the parent of a compound that is named as a salt.
Let's look at some molecules and their measured Relative cell viability (%).
Entry rule: numbers only, all in %.

{"columns": ["Molecule", "Observed value"],
 "data": [
  ["CCOC(=O)C1=C[C@@H](OC(CC)CC)[C@H](NC(C)=O)[C@@H](N)C1 [Oseltamivir Phosphate]", 60.68],
  ["N=C(N)NC(=O)Cc1c(Cl)cccc1Cl [Guanfacine Hydrochloride]", 129.1],
  ["CC#C[C@]1(O)CC[C@H]2[C@@H]3CCC4=CC(=O)CCC4=C3[C@@H](c3ccc(N(C)C)cc3)C[C@@]21C", 46.12]
]}

Consider now this further molecule.
Quickly give me recorded Relative cell viability (%) for O=c1c(-c2ccc(O)cc2)coc2cc(O)cc(O)c12
102.3

###

# Tested on: HT29
# Measurement conditions: 72 h, relative to DMSO; 10 µM
Where a name gives a salt, the structure may show the parent alone.
Items are presented alongside their recorded Relative cell viability (%).
Give the value in % but do not write % after it.

{"columns": ["Compound", "Observed value"],
 "data": [
  ["C#CCN[C@@H]1CCc2ccccc21 [Rasagiline Mesylate]", 103.1],
  ["O=C(O)c1cc(-c2ccccc2)nc2ccccc12", 89.39],
  ["COc1nc(C)nc(Cl)c1N=C1NCCN1", 116.7]
]}

Give a short answer stating reported Relative cell viability (%) for C=CCN1CC[C@]23c4c5ccc(O)c4O[C@H]2C(=O)CC[C@@]3(O)[C@H]1C5 [Naloxone HCl] .
95.63

Give the value of Relative cell viability (%) reported for the following: CCc1c2c(nc3ccc(OC(=O)N4CCC(N5CCCCC5)CC4)cc13)-c1cc3c(c(=O)n1C2)COC(=O)[C@]3(O)CC [Irinotecan HCl Trihydrate]
113.8

Tell me measured Relative cell viability (%) for CC(C(=O)O)c1ccc(C(=O)c2cccs2)cc1 (stereo not drawn) please.
93.22

Output measured Relative cell viability (%) for this item: Nc1ccc(/N=N/c2ccccc2)c(N)n1 [Phenazopyridine HCl]
73.94

Return the recorded Relative cell viability (%) value; entry: Cn1c(=O)cc(N2CCC[C@@H](N)C2)n(Cc2cc(F)ccc2C#N)c1=O
63.68

Complete the entry with Relative cell viability (%) for CN1C(C(=O)Nc2ccccn2)=C(O)c2sc(Cl)cc2S1(=O)=O
228.6

###

# Tested on: HT29
# Measurement conditions: 72 h, relative to DMSO; 10 µM
# Procedure: To investigate the key signaling pathways and biological processes involved in CRC progression, we analyzed the National Center for Biotechnology Information Gene Expression Omnibus (GEO) dataset GSE115313, which included 42 CRC and paired normal tissues (Figure 1A). […] Absorbance at the wavelength of 450 nm was measured using an automated microplate spectrophotometer (BioTek Instruments, Winooski, VT, USA).
Where a name gives a salt, the structure may show the parent alone.
Measurement name: Relative cell viability (%) (%)
Give the value in % but do not write % after it.

Use the examples below as a reference point.
{"columns": ["Compound", "Observed value"],
 "data": [
  ["Cn1nnc2c(C(N)=O)ncn2c1=O [Temozolomide]", 86.76],
  ["COc1ccccc1OCC(O)COC(N)=O (centres unmarked)", 46.19],
  ["CCCNC(=O)NS(=O)(=O)c1ccc(Cl)cc1 [Chlorpropamide]", 79.39],
  ["CCCCCCCC(=O)N[C@H](CN1CCCC1)[C@H](O)c1ccc2c(c1)OCCO2 [Eliglustat Tartrate]", 81.62],
  ["Nc1nc(Cl)nc2c1ncn2[C@@H]1O[C@H](CO)[C@@H](O)[C@@H]1F", 43.15],
  ["CCCc1nc2c(C)cc(-c3nc4ccccc4n3C)cc2n1Cc1ccc(-c2ccccc2C(=O)O)cc1", 47.46],
  ["Cc1ccc(C(=O)C(C)CN2CCCCC2)cc1 (centres unmarked) [Tolperisone HCl]", 89.39],
  ["Nc1nc(N)nc(-c2cc(Cl)ccc2Cl)n1", 176.5]
]}

Retrieve Relative cell viability (%) measured for CCc1cc(C(N)=S)ccn1 [Ethionamide] and print it.
62.71

Return value of Relative cell viability (%) for input CC1=CC(=O)c2ccccc2C1=O , no commentary.
15.16

###

Below, each of the compounds is paired with its reported Relative cell viability (%) value.
# Tested on: HT29
# Measurement conditions: 72 h, relative to DMSO; 10 µM
Structures can show the parent of a compound that is named as a salt.
Write the number in % without appending the unit.

Here's what some known entries look like.
{"columns": ["Compound", "Target system", "Measurement name", "Observed value"],
 "data": [
  ["CCCCC(=O)N(Cc1ccc(-c2ccccc2-c2nnn[nH]2)cc1)[C@H](C(=O)O)C(C)C [Valsartan]", "HT29", "Relative cell viability (%)", 83.05],
  ["OC(Cn1cncn1)(Cn1cncn1)c1ccc(F)cc1F [Fluconazole]", "HT29", "Relative cell viability (%)", 66.51],
  ["CN(C)Cc1ccc(S(=O)(=O)n2ccc(/C=C/C(=O)NO)c2)cc1 [Resminostat]", "HT29", "Relative cell viability (%)", 19.9],
  ["CCCCCCCCCCCCCCCC(=O)O[C@@H]1[C@@H](O)[C@@H](O)[C@@H]([C@H](NC(=O)[C@@H]2C[C@@H](CCC)CN2C)[C@H](C)Cl)O[C@@H]1SC [Clindamycin palmitate HCl]", "HT29", "Relative cell viability (%)", 40.29],
  ["CCCCOc1ccc(CC(=O)NO)cc1 [Bufexamac]", "HT29", "Relative cell viability (%)", 101.5],
  ["N[C@@H](Cc1cc(I)c(Oc2ccc(O)c(I)c2)c(I)c1)C(=O)O [Liothyronine Sodium]", "HT29", "Relative cell viability (%)", 85.76]
]}

Read the entry COc1ccccc1OCC(O)CO (centres unmarked) [Guaifenesin] and write its reported Relative cell viability (%).
74.15

Identify measured Relative cell viability (%) corresponding to Cn1ncc(Cl)c1-c1cc(C(=O)N[C@H](CN)Cc2ccc(F)c(F)c2)oc1Cl [Uprosertib (GSK2141795)]
4.701

Cited source: paper PMC11672294
